- Tested on: MDA-MB-468 breast
- assay-remarks: NCI-60 one-dose screen, 48 h (100 = growth as untreated, 0 = no growth, -100 = all killed)
- condition: 10 µM unless noted
This is part of a sample that, as a whole, favours compounds with a hit. Of some 83,000 tested, about 20% had one in any assay. Calls of active or inactive are those of the source. Rule for the calls: active = growth percent below 10; inactive = the rest.
Provide the reported growth of each item.

The molecule listed as O=C(Nc1ncc(Cc2cccc(C(F)(F)F)c2)s1)c1ccc(-n2cnnn2)cc1 shows growth equal to 16.7% (inactive)

growth for O=C(Nc1ccc(C(=O)/C=C/c2ccc(N3CCOCC3)cc2)cc1)Nc1ccc([N+](=O)[O-])cc1 is 91% (inactive)

growth reported for this molecule Cn1ncc2cc3c(Nc4ccc(Cl)cc4)cccc3nc21 : 79% (inactive)

The recorded growth for entry C=C(C)[C@@H]1CC[C@]2(C(=O)N=C=S)CC[C@]3(C)[C@H](CC[C@@H]4[C@@]5(C)CCC(=O)C(C)(C)[C@@H]5CC[C@]43C)[C@@H]12 equals 11.2% (inactive)

---

- System: MDA-MB-468 breast
- assay-remarks: NCI-60 one-dose screen, 48 h (100 = growth as untreated, 0 = no growth, -100 = all killed)
- condition: 10 µM unless noted
The panel holds about 83,000 compounds, 20% with a hit somewhere; the sample as a whole holds those more often.
experimental-endpoint: growth (%)
The figure you give is taken to be in %; do not add the unit.

Looking up COc1ccc(CCN2C(=O)C(C)(C)SC2=S)cc1OC , I see its growth listed as 105

Input COc1ccc(-c2csc(NC(=O)CSc3nc(C)cc(=O)[nH]3)n2)cc1 . Output growth: 118

Lab note: CCCCCCCCN(CCCCCCCC)CCCCCCCCCN1CCCc2cc(OC)ccc21 gave growth of 61.8

# growth of COC(=O)[C@]12CC[C@@H](C)[C@H](C)[C@@H]1C1=CC[C@@H]3[C@@]4(C)C[C@@H](OC(C)=O)[C@H](O)[C@@](C)(COC(C)=O)[C@@H]4[C@H](O)C[C@@]3(C)[C@]1(C)CC2 = -90.2

Record summary for COc1ccc(/C=C\c2cc(OC)c(OC)c(OC)c2)cc1OCC(=O)Nc1ccc2nc(C)sc2c1 : reported growth = 7.78

The molecule COc1ccc(N2C(=O)c3cc(OC)c(OC)cc3NC2SCc2ccccc2)cc1 (centres undefined) showed growth equal to 108

// sample COc1cc(C2=C(c3cn(C)c4ccccc34)COC2=O)cc(OC)c1OC , its growth was 16

Form field growth, entry N#Cc1c(-c2ccc(F)cc2)cc(-c2cccc(Cl)c2)[nH]c1=O : 81.4

N=C(N)c1ccc(-c2ccc(-c3cc(Cl)cc(Cl)c3)o2)nc1 yielded growth of -73.9

---

- Test system: SF-539 CNS
- assay-remarks: NCI-60 one-dose screen, 48 h
- condition: 10 µM
The panel holds about 83,000 compounds, 20% with a hit somewhere; the sample as a whole holds those more often. The source made the active and inactive calls. How the source made its calls: active means growth percent below 10; inactive means the rest.
Would you mind answering with one of these outcomes? class 1 (active), class 0 (inactive)

Hi, sorry to bother you, what did the test record for O=C(c1ccc(Cl)cc1)C(c1c[nH]c2ccccc12)c1c[nH]c2ccccc12 ?
class 1

Name the outcome recorded for Cn1cc(-c2cc(N)n3nc(-c4cn(C)c5ccccc45)cc3n2)c2cc(F)ccc21 in the assay.
class 1

Recorded test outcome, item C#C[C@]1(O)CC[C@H]2[C@@H]3CC=C4c5sc(Nc6ccc(C(F)(F)F)cn6)nc5CC[C@]4(C)[C@H]3CC[C@@]21C
class 1

State the result this test recorded for Cn1cc(-c2nnc(N)nc2-c2c[nH]c3ccc(F)cc23)c2cc(Br)cnc21 .
class 0

Tell me the assay call for Fc1ccc(-c2csc(Nc3cccc(Nc4nc(-c5ccc(F)cc5)cs4)c3)n2)cc1 please.
class 0

For O=C(c1ccc(F)cc1)C(c1c[nH]c2ccccc12)c1c[nH]c2ccccc12 , what call appears in the results of this test?
class 0

I'd appreciate the recorded outcome for COc1cc2oc(-c3cccc(C(=O)Nc4ccc(Cl)cc4)c3)cc(=O)c2c(OCCNC(=O)[C@@H](N)CO)c1OC from this test.
class 0

Call for entry COc1cc2oc(-c3cccc(C(=O)Nc4ccc(Cl)cc4)c3)cc(=O)c2c(OCCN)c1OC :
class 1

Which result was noted for this compound in the test: COc1ccc(Cc2nn(CC(=O)N/N=C/c3ccc([N+](=O)[O-])cc3)c(=O)c3c(C)noc23)cc1
class 0

Returns: the outcome recorded for COc1cc(C2CC(c3ccccc3)=Nc3c(N)nc(N)nc3N2)ccc1Oc1nc(NCCO)nc(N2CCOCC2)n1 (stereo unspecified) in this assay.
class 0

Kindly provide the recorded test outcome for the following compound: CCOC(=O)c1ccc(NC(=O)CSC(CC(=O)c2sc(Nc3ccccn3)nc2C)c2ccccc2F)cc1 (stereo unspecified)
class 1
